- assay.name: Pharmacokinetic Profile Evaluation (mouse PK)
- Assay type: in vivo, CD-1 mice
- condition.parameters: CD-1, plasma, oral administration at 5 mg/kg, read-out: AUC00~∞
AUC listing for selected molecules.
property: AUC (ng·h/mL)

Cn1c(=O)cc(N2CCC(c3nc4cc(F)ccc4o3)CC2)c2nc(C#N)ccc21 ... 5940
Cc1ccc2oc(C3CCN(c4cc(=O)n(C)c5cc(O[C@@H]6CCOC6)c(C#N)nc45)CC3)nc2c1 ... 3460
Cc1ccc2oc(C3CCN(c4cc(=O)n(C)c5cc(OCCO)c(C#N)nc45)CC3)nc2c1 ... 12100
Cc1ccc2oc(C3CCN(c4cc(=O)n(C)c5ccc(C#N)nc45)CC3)nc2c1 ... 6150

Values were extracted from patent US12077538B2.
